Ref: PubChem BioAssay AID1496

# subject_of_test: Runt-related transcription factor 1 (Homo sapiens) + Core-binding factor subunit beta (Homo sapiens) (UniProt Q01196+Q13951)
# Sequence (Q01196 whole entry, looked up): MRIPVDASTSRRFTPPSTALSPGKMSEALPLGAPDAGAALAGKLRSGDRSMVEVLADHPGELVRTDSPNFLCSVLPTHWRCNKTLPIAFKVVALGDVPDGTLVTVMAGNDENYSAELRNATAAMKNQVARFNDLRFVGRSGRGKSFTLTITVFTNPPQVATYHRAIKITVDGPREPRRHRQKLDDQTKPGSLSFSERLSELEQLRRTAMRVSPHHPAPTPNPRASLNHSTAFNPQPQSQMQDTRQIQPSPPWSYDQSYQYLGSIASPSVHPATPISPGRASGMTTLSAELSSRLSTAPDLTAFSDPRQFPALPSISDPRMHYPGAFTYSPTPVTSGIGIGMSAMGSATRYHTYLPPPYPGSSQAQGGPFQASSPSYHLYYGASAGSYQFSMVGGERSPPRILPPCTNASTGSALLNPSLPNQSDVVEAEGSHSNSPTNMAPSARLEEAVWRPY
# Sequence (Q13951 whole entry, looked up): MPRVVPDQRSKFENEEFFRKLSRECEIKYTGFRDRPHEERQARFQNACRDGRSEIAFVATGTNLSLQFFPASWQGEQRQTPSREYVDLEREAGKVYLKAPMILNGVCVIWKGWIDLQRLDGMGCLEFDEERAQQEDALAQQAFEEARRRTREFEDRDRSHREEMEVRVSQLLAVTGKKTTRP
# assay_comment: inhibitors of RUNX1 Runt–CBFb binding, primary screen, biochemical, FRET, Cerulean-Runt, Venus-CBFb, uHTS (AID 1496);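 note: 0% = DMSO wells and 100% = excess unlabeled CBFb competitor control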
# stated_conditions: Cerulean-Runt/Venus-CBFb FRET ratio 530/480, 1 h; at 20 µM; active compounds read high
Out of some 220,000 compounds screened, about 990 (0.45%) were called active. This is one part of a sample in which actives are shown more often than they occur.
property: inhibition (%)
The reply should be a number in %, with the unit left off.

Consider the worked cases shown below.
COc1ccc(/C=C2\N=C3CCCN3C2=O)cc1	1.1
CSC1=NC2(C)CCCCC2C12C=CC(=O)C=C2 (configuration not stated)	2.8
Cc1cc(C)n(CC(C)NCc2c(C(=O)N3CCOCC3)nc3c(C)cccn23)n1 (configuration not stated)	0.6

In plain terms, `CC(C)(C)c1nnc(NC(=O)C2c3ccccc3Oc3ccccc32)s1` has a documented inhibition of 21

In plain terms, `CCN1/C(=C/C(=S)Nc2ccccc2)Sc2ccccc21` has a documented inhibition of 59.1

In plain terms, OC(c1nc2ccccc2[nH]1)C(O)C(O)C(O)c1nc2ccccc2[nH]1 (configuration not stated) has a documented inhibition of -0.4

In plain terms, `CCn1cnc2scc(-c3ccc(C)c(C)c3)c2c1=O` has a documented inhibition of 0.4

In plain terms, `CCCN(CCC)S(=O)(=O)c1ccc(C(=O)N2CC3CCC(CC3)C2)cc1` has a documented inhibition of -0.8

In plain terms, `O=c1cc(CN2CCN(S(=O)(=O)/C=C/c3ccccc3)CC2)c2ccc(O)cc2o1` has a documented inhibition of 74.1

In plain terms, `Cc1cc(F)ccc1S(=O)(=O)Nc1ncnc2scc(-c3ccc(F)cc3)c12` has a documented inhibition of 66.8

In plain terms, `CC(=O)Nc1cc2ccc(OC(C)=O)cc2oc1=O` has a documented inhibition of 86.5

In plain terms, CCC(C)(C)NC(=O)C(c1ccc(O)cc1)N(C(=O)Cn1nnc2ccccc21)c1ccc(NC(C)=O)cc1 (configuration not stated) has a documented inhibition of 0.4

In plain terms, CCCS(=O)(=O)N1CCCC(C(=O)NCc2ccco2)C1 (configuration not stated) has a documented inhibition of 71.8

In plain terms, `CCN(CC)C(=O)Oc1ccc(Br)cc1C(=O)Nc1ccc(F)c(Cl)c1` has a documented inhibition of 0.6

In plain terms, `O=C(Oc1ccccc1)Oc1ccc2c(c1)oc(=O)c1ccccc12` has a documented inhibition of -1

In plain terms, CC1=NNC(=O)C1CCC(=O)N/N=C(\C)c1ccc(Cl)cc1 (configuration not stated) has a documented inhibition of -1.6

In plain terms, `O=S(=O)(Nc1ccc(OC(F)(F)F)cc1)c1cccc2nonc12` has a documented inhibition of -2.4

In plain terms, `O=C(C[n+]1cc(-c2ccc(Cl)c(Cl)c2)n2c1CCC2)c1cccs1` has a documented inhibition of 1.5

In plain terms, `NNC(=O)c1cccc(COCC(F)(F)C(F)F)c1` has a documented inhibition of -0.3

In plain terms, `CNC(=O)c1cc2c(ccc3ccccc32)oc1=N` has a documented inhibition of 108

In plain terms, O=C(NCc1ccco1)C1CCCN(S(=O)(=O)c2ccccc2)C1 (configuration not stated) has a documented inhibition of -0.1
